organism: Mus musculus; assay: TI value is the ratio between TD50 and ED50; assay type: functional
Measured TI, listed per entry.

>  <Chemical Structure>
Cl.NC1(c2ccccc2C(F)(F)F)CCCCC1

>  <TI>
1.29

$$$$
>  <Chemical Structure>
Cl.NC1(c2cccc(O)c2)CCCCC1

>  <TI>
1.21

$$$$
>  <Chemical Structure>
C[C@@H]1CCC[C@@](N)(c2ccccc2)C1.Cl

>  <TI>
1.98

$$$$
>  <Chemical Structure>
COc1cccc(C2(N)CCCCC2)c1.Cl

>  <TI>
1.45

$$$$
>  <Chemical Structure>
Cl.NC1(c2cc3ccccc3c3ccccc23)CCCCC1

>  <TI>
1.28

$$$$
>  <Chemical Structure>
C[C@H]1CC[C@@](N)(c2ccccc2)CC1.Cl

>  <TI>
2.05

$$$$
>  <Chemical Structure>
Cl.NC1(c2cccs2)CCCCC1

>  <TI>
0.47

$$$$
>  <Chemical Structure>
Cl.NC1(Cc2ccccc2)CCCCC1

>  <TI>
1.95

$$$$
>  <Chemical Structure>
C[C@H]1CCC[C@@](N)(c2ccccc2)C1.Cl

>  <TI>
3.04

$$$$
>  <Chemical Structure>
Cl.NC1(c2cccc(OCc3ccccc3)c2)CCCCC1

>  <TI>
2.28

$$$$
>  <Chemical Structure>
Cl.NC1(c2ccc(-c3ccccc3)cc2)CCCCC1

>  <TI>
1.42

$$$$
>  <Chemical Structure>
Cl.NC1(c2ccc(F)cc2)CCCCC1

>  <TI>
0.9

$$$$
>  <Chemical Structure>
c1ccc(C2(N3CCCCC3)CCCCC2)cc1

>  <TI>
0.93

$$$$
